Every entry's value here was drawn from PubChem BioAssay (NCI).

System: SF-295 CNS
Assay: NCI-60 one-dose screen, 48 h (100 = growth as untreated, 0 = no growth, -100 = all killed)
Settings: 10 µM
About 83,000 compounds went through this panel and 20% of them were active in at least one assay; those are over-represented in the sample as a whole.
measurementLabel: growth (%)
Numbers only, in %.

Worked cases, answers included:
COC(=O)C[C@](O)(CCC(C)C)C(=O)O[C@@H]1C(OC)=C[C@]23CCCN2CCc2cc4c(cc2[C@H]13)OCO4 | -35.5
CC1=C(C=O)C2=C(C)C3(CC3)[C@@](C)(O)C(=O)C2=C1 | 70.5
O=C(/C=C/c1ccco1)c1nc2ccccc2n1Cc1ccc(Br)cc1 | 53.5

Note: attention shifts to another entry.
Q) For SF-295 CNS, give the measured growth of the entry CC[C@]12C=CCN3CC[C@@]4(c5ccc(OC)cc5N(C)[C@H]4[C@@](O)(C(=O)OC)[C@@H]1OC(=O)CCCC[P+](c1ccc(OC)cc1)(c1ccc(OC)cc1)c1ccc(OC)cc1)[C@@H]32
A) -93.6

----------
Test system: EKVX NSCLC
Assay: NCI-60 one-dose screen, 48 h (100 = growth as untreated, 0 = no growth, -100 = all killed)
Settings: 10 µM
This is part of a sample that, as a whole, favours compounds with a hit. Of some 83,000 tested, about 20% had one in any assay.
I'd appreciate it if you could supply growth values for the items below.
One number for each entry, in %.

COCCOCCOCCOc1ccc(-n2cc(CCCN(CCNc3ccnc4cc(Cl)ccc34)C(=O)CCC(=O)O[C@@H]3O[C@@H]4OC5(C)CC[C@H]6[C@H](C)CC[C@@H]([C@H]3C)[C@@]46OO5)nn2)cc1 | 53.5

Please give growth, item by item, for the list that follows.
1. C[C@H]1[C@H](OC(=O)CCC(=O)N(CCCc2cn(-c3ccc(CN4CCOCC4)cc3)nn2)CCNc2ccnc3cc(Cl)ccc23)O[C@@H]2OC3(C)CC[C@H]4[C@H](C)CC[C@@H]1[C@@]24OO3
2. O=C(/C=C/c1cccc(Br)c1)c1nc2ccccc2n1Cc1ccc(Br)cc1

A)
[49, -54.8]

----------
Tested on: KM12 colon
Test: NCI-60 one-dose screen, 48 h (100 = growth as untreated, 0 = no growth, -100 = all killed)
Conditions: 10 µM
The panel holds about 83,000 compounds, 20% with a hit somewhere; the sample as a whole holds those more often.
measurementLabel: growth (%)
Give bare numbers, in %.

Please review the entries below; each comes with its answer.
C#CC[Se]C(=O)c1ccc2n[se]nc2c1 | 95.2
O=C(/C=C/c1cccc(Br)c1)c1nc2ccccc2n1Cc1ccc(Br)cc1 | 6.51
CC[C@]12C=CCN3CC[C@@]4(c5ccc(OC)cc5N(C)[C@H]4[C@@](O)(C(=O)OC)[C@@H]1OC(=O)CCC[P+](c1ccc(F)cc1)(c1ccc(F)cc1)c1ccc(F)cc1)[C@@H]32 | 21.3
COc1ccc(/C=C/C(=O)c2nc3ccccc3n2Cc2ccc(Br)cc2)cc1 | 61.5
C[C@H]1[C@H](OC(=O)CCC(=O)Nc2cnccn2)O[C@@H]2OC3(C)CC[C@H]4[C@H](C)CC[C@@H]1[C@@]24OO3 | 22.3
CC1=C(COCCOC(=O)c2ccc(S(=O)(=O)F)cc2)C2=C(C)C3(CC3)[C@@](C)(O)C(=O)C2=C1 | 29.6

Respectfully, I request growth for each entry included below.
1. C#CC[Se]C(=O)c1ccc(C(=O)[Se]CC#C)s1
2. CC[C@]12C=CCN3CC[C@@]4(c5ccc(OC)cc5N(C)[C@H]4[C@@](O)(C(=O)OC)[C@@H]1OC(=O)CCC[P+](c1ccc(C)cc1)(c1ccc(C)cc1)c1ccc(C)cc1)[C@@H]32
3. N#C[Se]CC(=O)Nc1cccc(C(F)(F)F)c1
4. COC(=O)CCn1c(-c2ccc(-n3cc(-c4ccc(O[C@H]5O[C@@H]6OC7(C)CC[C@H]8[C@H](C)CC[C@@H]([C@H]5C)[C@@]68OO7)cc4)nn3)cc2)nc2ccccc21

A)
[42.8, -76.1, 41.5, 18]
